The measurements presented in this section are drawn from paper PMC9732439.

ASSAY SYSTEM: bCA-II (Bos taurus)
Sequence (P00921 whole entry): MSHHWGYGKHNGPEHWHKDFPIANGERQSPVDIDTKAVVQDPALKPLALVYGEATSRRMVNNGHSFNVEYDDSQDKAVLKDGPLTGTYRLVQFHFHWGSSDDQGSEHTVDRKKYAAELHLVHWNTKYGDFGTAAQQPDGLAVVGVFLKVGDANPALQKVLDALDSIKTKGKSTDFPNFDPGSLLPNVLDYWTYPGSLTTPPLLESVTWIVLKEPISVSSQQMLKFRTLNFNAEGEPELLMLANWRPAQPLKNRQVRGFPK
MEASUREMENT LABEL: pKi
API: returns pKi as number; meaning -log10 of concentration in mol/L.

Form field, pKi with bCA-II (Bos taurus), item COc1cc(-c2c(F)cccc2F)ccc1O[C@H](C)Cn1cc(-c2ccc(F)cc2)nn1 : 4.95

====

ASSAY SYSTEM: hCA-II (Homo sapiens, UniProt P00918)
MEASUREMENT LABEL: pIC50
API: returns pIC50 as number; meaning -log10 of concentration in mol/L.

1. COc1cc(-c2ccc(F)c(F)c2F)ccc1O[C@H](C)Cn1cc(-c2ccc(F)cc2)nn1 | 4.71

Form field, pIC50 with hCA-II (Homo sapiens, UniProt P00918), item COc1cc(-c2cc(C(F)(F)F)cc(C(F)(F)F)c2)ccc1O[C@H](C)Cn1cc(-c2ccc(F)cc2)nn1 : 4.56

Form field, pIC50 with hCA-II (Homo sapiens, UniProt P00918), item COc1cc(-c2ccccc2C(F)(F)F)ccc1O[C@H](C)Cn1cc(-c2ccc(C(F)(F)F)cc2)nn1 : 4.90

====

Reported IC50, hCA-II (Homo sapiens, UniProt P00918).
Response body: numeric value in µM, unit text excluded.

1) COc1cc(Br)ccc1O[C@H](C)Cn1cc(-c2ccc(F)cc2)nn1 [Compound 7c] | 22.8
2) COc1cc(-c2ccc(Cl)cc2)ccc1O[C@H](C)Cn1cc(-c2ccc(F)cc2)nn1 [Compound 9j] | 18.5

Form field, IC50 with hCA-II (Homo sapiens, UniProt P00918), item COC(=O)c1cn(C[C@@H](C)Oc2ccc(Br)cc2OC)nn1 [Compound 7d] : 25.1
